assay: TROY pathway blockers in reporter cells – Q293 LMP1-TROYcd cells, NF-kB luciferase, uHTS, primary screen (AID 1347056); conditions: 4 h, at 10 µM
About 3,600 (1%) of roughly 360,000 compounds were called active.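 Rule for the calls: active = compounds whose plate-normalised and pattern-corrected inhibition of the luciferase reporter signal at the single screening dose is 50% or more; inactive = the rest.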 This excerpt belongs to a sample that is enriched for actives.
Outcome codes: y for active, n for inactive

| molecule | class-label |
| --- | --- |
| COC(=O)c1c(C)[nH]c(C(=O)/C=C/c2ccc(Cl)cc2)c1C | n |
| O=C(Nc1ccccc1F)c1ccc(Cn2cc(Br)cn2)cc1 | n |
| COCCCNC(=O)C1CCC(CNS(=O)(=O)c2ccc(OC)cc2)CC1 (stereo unspecified) | n |
| CN(C)C(=O)c1ccc2c(c1)C1C3CCC(C3)C1C(c1ccccc1)N2 (stereo unspecified) | n |
| N#CCSc1nc2c(c(=O)n1Cc1ccccc1)C1(CCCC1)Cc1ccccc1-2 | n |
| O=C(Nc1ccc2c(c1)OCCO2)C1CCCC1 | y |
| O=C(O)c1ccc2c(=O)n3c(nc2c1)/C(=C/c1ccc(OC(F)F)cc1OC(F)F)CC3 | n |
| CN1C(=O)c2ccc(NC(=O)C3CCCCC3)cc2C1=O | n |
| Cc1[nH]c(=O)c(C(=O)/C=C/c2ccccc2)c2c1CCCC2 | y |
| O=C(CSc1ncnc2scc(-c3ccccc3)c12)NCc1ccc2c(c1)OCO2 | n |
| Cc1cccc(-n2c(SCC(N)=O)nc3c(c2=O)C2(CCCCC2)Cc2ccccc2-3)c1 | y |

* * *

assay: TROY pathway blockers in reporter cells – Q293 LMP1-TROYcd cells, NF-kB luciferase, uHTS, primary screen (AID 1347056); conditions: 4 h, at 10 µM
About 3,600 (1%) of roughly 360,000 compounds were called active.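 The calls were made as follows: active = compounds whose plate-normalised and pattern-corrected inhibition of the luciferase reporter signal at the single screening dose is 50% or more; inactive = the rest.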 The entries come from a sample that favours actives as a whole.
Outcomes: true (1) (active), false (0) (inactive)

| compound | class-label |
| --- | --- |
| Cc1ccc(C(=O)N/C(=C\c2ccc(F)cc2)C(=O)NCCN2CCOCC2)cc1 | false (0) |
| CCOCCCNC(=S)N1CCC(NC(=O)C2CCCCC2)CC1 | false (0) |
| Cc1cccc(CN2CCC(CNC(=O)Nc3ccc(F)c(Cl)c3)CC2)c1 | false (0) |
| COc1ccccc1CNC(=O)CN1CCC(n2cnc3cc(F)ccc32)CC1 | false (0) |
| Cc1nnc(OCC(=O)NCCC2=CCCCC2)c2ccccc12 | false (0) |
| Cc1cccc(CNS(=O)(=O)c2ccc(-c3cnc(C4CC4)o3)cc2)c1 | false (0) |
| CN1CCN(CCCNC(=O)c2ccc(/C=C3\Oc4ccccc4N(Cc4ccc(Cl)cc4)C3=O)cc2)CC1 | true (1) |
| O=C(/C=C/c1ccc(Cl)cc1)N1CCN(c2ccccc2[N+](=O)[O-])CC1 | false (0) |
| O=C(/C=C/c1ccc(Cl)c([N+](=O)[O-])c1)c1cccnc1 | true (1) |
| COc1cc(NC(=O)COc2ccccc2Cl)ccc1NC(=O)C(C)C | false (0) |
| O=C(O)c1ccc2c(=O)n3c(nc2c1)/C(=C/c1ccc(Cl)c([N+](=O)[O-])c1)CC3 | false (0) |
| O=c1ccc2cc(S(=O)(=O)NCCCc3ccccc3)ccc2[nH]1 | false (0) |
| Cc1ccccc1OCC(=O)Nc1ccc(N2CCN(C(=O)C(C)C)CC2)c(Cl)c1 | true (1) |
| CN(C)S(=O)(=O)c1ccc2oc(SCC(=O)Nc3ccccc3F)nc2c1 | false (0) |
| Cc1ccc(C)c(Cn2nnc3c(=O)[nH]c(C(=O)Nc4ccc(F)cc4)nc32)c1 | false (0) |
| O=C(Nc1cccnc1)c1ccc(Cl)cc1[N+](=O)[O-] | false (0) |
| CCN1CCN(CCNC(=O)c2ccc(/C=C3/Sc4ccccc4N(Cc4cccc(C)c4)C3=O)cc2)CC1 | true (1) |
| COc1cccc2c(C)c(C(=O)O)[nH]c12 | true (1) |
| OCCCNc1nccc(-c2cc(Nc3cccc(Cl)c3)ncn2)n1 | true (1) |
| OC[C@@H]1CN(Cc2ccncc2)C[C@H](n2cnc3c(N4CCN(c5ccccc5)CC4)ncnc32)O1 | false (0) |
| Cc1c(C)n(Cc2ccc(Cl)cc2)c2ccc(C(=O)NCCCN3CCOCC3)cc12 | false (0) |
| O=C(/C=C/c1ccc(Cl)c([N+](=O)[O-])c1)c1ccc(O)cc1 | true (1) |
| CCC1Oc2ccccc2N(CC(=O)NCCCN2CCN(CC)CC2)C1=O (stereo unspecified) | false (0) |
| COc1ccc(CNc2nnnn2C)cc1 | false (0) |
| CC1O[C@H](OC2C(COC3OC(CO)C(O)[C@H](O)C3O)OC(OC3CC[C@]4(C)C(CC[C@@]5(C)[C@@H]4C=C[C@]46OC[C@@]7(CCC(C)(C)C[C@H]74)C(O)C[C@@]56C)C3(C)C)C(O)C2O)C(O)C(O)C1O (stereo partly specified) | false (0) |
| CCN1CCN(CCNC(=O)c2ccc3c(c2)NC(=O)/C(=C\c2cccc(Cl)c2)S3)CC1 | false (0) |
| COc1ccc(-n2nnnc2SCC(=O)NCc2cccs2)cc1 | false (0) |
| COc1cc(/C(=C/c2ccccc2)c2ccccc2)c2c(c1)oc1ccccc12 | false (0) |
| C/C(=N\NC(=O)Cc1ccccc1[N+](=O)[O-])c1cccnc1 | false (0) |
| Cc1cccc(NC(=O)c2nc(S(=O)(=O)Cc3ccccc3)ncc2Cl)c1 | true (1) |
| CCc1ccccc1OCC(=O)Nc1ccc(C)c(S(=O)(=O)N2CCCCCC2)c1 | false (0) |
| COc1ccc(CNS(=O)(=O)c2ccc(-c3cnc(C4CC4)o3)cc2)cc1 | false (0) |
| O=C(CCNC(=O)Cn1ccc2ccccc2c1=O)NCCC1=CCCCC1 | false (0) |
| Cc1ccnc(NC(=O)C(C)N2C(=O)c3ccccc3C2=O)c1 (stereo unspecified) | false (0) |
| COc1cc2c(C(=O)O)c(C)n(C)c2c2ccccc12 | false (0) |
| CCOC(=O)c1c(C)[nH]c(C)c1C(=O)CSc1nc(N)cc(N)n1 | false (0) |
| CCOC(=O)c1cc(C)sc1NC(=O)C1CCC1 | false (0) |
| O=C(NCCN1CCOCC1)c1ccc(/C=C2\Sc3ccccc3N(Cc3ccc(F)cc3)C2=O)cc1 | true (1) |
| CC(=O)Nc1ccc(S(=O)(=O)N2CCC(N(C)CCC(C)C)CC2)cc1 | false (0) |
| Cc1cccc(NS(=O)(=O)c2ccc(-c3cnc(C4CC4)o3)cc2)c1 | true (1) |
| O=C(NCCN1CCOCC1)/C(=C/c1ccc(F)cc1)NC(=O)c1ccccc1 | false (0) |

Sourced from PubChem BioAssay AID1347056
